The entries below come with measured pIC50 values attached.
- SUBJECT_OF_TEST: UGT1A1 (Homo sapiens, UniProt P22309)
- Sequence (P22309 26-533): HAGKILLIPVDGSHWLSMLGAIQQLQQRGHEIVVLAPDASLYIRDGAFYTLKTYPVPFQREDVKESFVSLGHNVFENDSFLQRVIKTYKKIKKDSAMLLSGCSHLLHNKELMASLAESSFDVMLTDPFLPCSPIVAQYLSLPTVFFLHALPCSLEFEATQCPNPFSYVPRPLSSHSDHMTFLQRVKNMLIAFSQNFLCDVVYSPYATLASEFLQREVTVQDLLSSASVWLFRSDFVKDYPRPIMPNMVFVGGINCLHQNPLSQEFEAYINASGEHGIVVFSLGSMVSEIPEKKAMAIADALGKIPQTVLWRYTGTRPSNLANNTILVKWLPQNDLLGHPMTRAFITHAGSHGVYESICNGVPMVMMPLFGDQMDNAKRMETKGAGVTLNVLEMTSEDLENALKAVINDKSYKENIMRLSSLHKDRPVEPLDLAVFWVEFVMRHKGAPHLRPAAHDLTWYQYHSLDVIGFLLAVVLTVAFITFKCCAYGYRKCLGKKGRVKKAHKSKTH
- EXPERIMENT_SUMMARY: Inhibition of UGT1A1 (β-estradiol-3-glucuronidation) in human liver microsomes
pIC50: −log10 of the molar value.

Example cases with answers are listed next.
- MOLECULE_SMILES: "CC1=C(/C=C/C(C)=C/C=C/C(C)=C/C=C/C=C(C)/C=C/C=C(C)/C=C/C2=C(C)C(=O)[C@@H](O)CC2(C)C)C(C)(C)C[C@H](O)C1=O"
  pIC50: "< 4.30"
- MOLECULE_SMILES: "CC1=C(/C=C/C(C)=C/C=C/C(C)=C/C=C/C=C(C)/C=C/C=C(C)/C=C/C2=C(C)C[C@@H](O)CC2(C)C)C(C)(C)C[C@H](O)C1"
  pIC50: "< 4.30"

With those in mind, consider the next molecule.
Query :: Can you look up the measured pIC50 of `CC1=C[C@H](O)CC(C)(C)[C@H]1/C=C/C(C)=C/C=C/C(C)=C/C=C/C=C(C)/C=C/C=C(C)/C=C/C1=C(C)C[C@@H](O)CC1(C)C` for me?
Result :: 4.34

###

We begin with a simple list: items and their reported pIC50.
- SUBJECT_OF_TEST: UGT1A9 (Homo sapiens, UniProt O60656)
- Sequence (O60656 26-530): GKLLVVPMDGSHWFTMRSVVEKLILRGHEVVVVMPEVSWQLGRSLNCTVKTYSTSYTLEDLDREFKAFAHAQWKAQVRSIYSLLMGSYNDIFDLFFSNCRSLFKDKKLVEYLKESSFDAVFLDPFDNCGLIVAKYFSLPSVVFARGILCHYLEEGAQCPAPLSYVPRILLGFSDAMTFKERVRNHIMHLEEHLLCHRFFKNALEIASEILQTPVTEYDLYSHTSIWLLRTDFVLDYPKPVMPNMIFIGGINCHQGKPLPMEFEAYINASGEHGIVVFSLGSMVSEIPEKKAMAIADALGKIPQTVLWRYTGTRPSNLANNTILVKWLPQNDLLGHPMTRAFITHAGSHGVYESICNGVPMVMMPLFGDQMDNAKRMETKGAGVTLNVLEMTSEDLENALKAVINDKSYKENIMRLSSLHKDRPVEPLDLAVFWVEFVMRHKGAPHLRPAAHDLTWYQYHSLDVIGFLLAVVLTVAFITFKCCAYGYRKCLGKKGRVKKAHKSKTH
- EXPERIMENT_SUMMARY: Inhibition of UGT1A9 (propofol-O-glucuronidation) in human liver microsomes
- COND: read-out: IC50 towards UGT1A9; human liver microsomes, 100 μM propofol, mean ± SD of triplicate
pIC50: −log10 of the molar value.

- COMPOUND: "CC1=C(/C=C/C(C)=C/C=C/C(C)=C/C=C/C=C(C)/C=C/C=C(C)/C=C/C2=C(C)C[C@@H](O)CC2(C)C)C(C)(C)CCC1 [βC, β-cryptoxanthin]"
  OBS_VALUE: "< 4.30"

Query :: Please report the recorded pIC50 for CC1=C(/C=C/C(C)=C/C=C/C(C)=C/C=C/C=C(C)/C=C/C=C(C)/C=C/C2=C(C)C(=O)CCC2(C)C)C(C)(C)CCC1=O [CA, canthaxanthin] .
Result :: < 4.30
